Test: Phase 1 study: plasma pharmacokinetics in patients
Type: in vivo, human
Conditions: human, plasma, po, 300 mg, patient plasma after oral (1-g) 300 mg QD, C1D1, n = 10, mean; read-out: Cmax of (1-h)
OBSERVATION_TYPE: Cmax (ng/mL)
All answers are understood in ng/mL, so give the number only.

[in] Which value of Cmax has been reported for O=C1CC[C@@H](N2Cc3cc(N4CCN(CC5CCN(c6ccc([C@@H]7c8ccc(O)cc8OC[C@@H]7c7ccccc7)cc6F)CC5)CC4)ccc3C2=O)C(=O)N1 in the records?
[out] 112

###

Assay: Phase 1 study: plasma pharmacokinetics in patients
Type: in vivo, human
Settings: human, plasma, po, 200 mg, patient plasma, oral (1-g) 200 mg QD, C1D1, n = 12, mean; read-out: T½ (converted)
OBSERVATION_TYPE: half-life
The answer should read as a number with its unit following.

[in] Which value of half-life has been reported for O=C1CC[C@H](N2Cc3cc(N4CCN(CC5CCN(c6ccc([C@@H]7c8ccc(O)cc8OC[C@@H]7c7ccccc7)cc6F)CC5)CC4)ccc3C2=O)C(=O)N1 [compound (1-g)] in the records?
[out] 38.3 h
